The measurements presented in this section are drawn from ChEMBL document CHEMBL5252667.

- measurement_notes: Aqueous solubility of the compound by HPLC-UV/MS analysis
- Format: physicochemical
- test_conditions: water (aqueous)
Kindly state solubility for each of the entries shown.
Answers are plain numbers, in µg/mL.

- structure_as_smiles: "CNC(=O)NC(=N)NCCCCCCCCN1CCCCCOc2ccccc2CNC(=N)NC1=O"
  unit: "µg/mL"
  quantitative_readout: 1810
- structure_as_smiles: "CNC(=O)NC(=N)NCCCCCCCCN1CCCc2ccc(F)cc2COc2ccccc2CNC(=N)NC1=O"
  unit: "µg/mL"
  quantitative_readout: 2850
- structure_as_smiles: "CNC(=O)NC(=N)NCCCCCCCCN1CCCc2cc(Cl)ccc2COc2ccccc2CNC(=N)NC1=O"
  unit: "µg/mL"
  quantitative_readout: 23100

// input: 2 compounds below; output: solubility for each
1. CNC(=O)NC(=N)NCCCCCCCCN1CCCc2ccccc2COc2ccccc2CNC(=N)NC1=O
2. CNC(=O)NC(=N)NCCCCCCCCN1CCCc2ccccc2COc2ccc(OC)cc2CNC(=N)NC1=O

Result ::
[2010, 3080]
